experimentalSystem: TGR5 (Homo sapiens, UniProt Q8TDU6)
Construct: host or cells: CHO cells
Sequence (Q8TDU6 whole entry): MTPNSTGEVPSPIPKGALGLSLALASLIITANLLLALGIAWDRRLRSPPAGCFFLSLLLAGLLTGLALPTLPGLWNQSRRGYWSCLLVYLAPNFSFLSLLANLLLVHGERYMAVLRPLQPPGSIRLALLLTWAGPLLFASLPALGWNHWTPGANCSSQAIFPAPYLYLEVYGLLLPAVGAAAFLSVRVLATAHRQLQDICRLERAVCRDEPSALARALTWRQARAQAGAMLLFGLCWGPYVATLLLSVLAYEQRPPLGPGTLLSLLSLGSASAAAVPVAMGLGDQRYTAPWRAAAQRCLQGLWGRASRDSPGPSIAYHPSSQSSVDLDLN
assayDetails: TGR5 cAMP assay in CHO cells transfected with TGR5 (cAMP Hunter eXpress, Discover X)
Assay type: cell-based
studyConditions: 10 µM; % vs INT-767 10 µM as 100%
parameterMeasured: TGR5 Efficacy (%) (10 µM)
API: value field is a number in %; no unit string.

Sample answers from the record:
# compound, experimentalSystem, TGR5 Efficacy (%) (10 µM)
measured = [
    ("CN(C)c1ccc(-c2ccc(CN(C(=O)c3ccncc3Cl)c3cc(Cl)cc(Cl)c3)cc2)cc1 [Compound 13x]", "TGR5 (Homo sapiens, UniProt Q8TDU6)", 9.8),
    ("COc1ccc(C2C3CCC2CC(CN(C(=O)c2ccncc2C)c2cc(Cl)cc(Cl)c2)C3)cc1C (stereo not shown) [Compound 20g]", "TGR5 (Homo sapiens, UniProt Q8TDU6)", -5.2),
    ("CN(C)c1ccc(-c2ccc(CN(C(=O)c3ccncc3C(F)(F)F)c3cc(Cl)cc(Cl)c3)cc2)cc1 [Compound 13z]", "TGR5 (Homo sapiens, UniProt Q8TDU6)", 24.4),
]

Field: TGR5 Efficacy (%) (10 µM) (TGR5 (Homo sapiens, UniProt Q8TDU6)). Entry: COC(=O)/C=C/c1cccc(N(Cc2ccc(-c3ccc(N(C)C)cc3)cc2)C(=O)c2ccccc2)c1 [Compound 13d]
0.0

* * *

experimentalSystem: TGR5 (Homo sapiens, UniProt Q8TDU6)
Construct: host or cells: CHO cells
assayDetails: TGR5 cAMP assay in CHO cells transfected with TGR5 (cAMP Hunter eXpress, Discover X)
Format: cell-based
studyConditions: 10 µM; % vs INT-767 10 µM as 100%
parameterMeasured: TGR5 Efficacy (%) (10 µM)
API: value field is a number in %; no unit string.

Sample answers from the record:
# compound, measurementUnits, TGR5 Efficacy (%) (10 µM)
measured = [
    ("Cc1cccc([C@H]2CC[C@H](CN(C(=O)c3ccncc3C)c3cc(Cl)cc(Cl)c3)CC2)c1 [Compound 20c]", "%", 5.7),
    ("Cc1cc(F)ccc1N(Cc1ccc(-c2ccc(N(C)C)cc2)cc1)C(=O)c1cccnc1 [Compound 13g]", "%", 0.8),
]

Please turn your attention to the following entry.
// query TGR5 Efficacy (%) (10 µM) value for entry CN(C)c1ccc(-c2ccc(CN(C(=O)c3ccccc3Cl)c3cc(Cl)cc(Cl)c3)cc2)cc1 [Compound 13ac]
0.2

* * *

experimentalSystem: TGR5 (Homo sapiens, UniProt Q8TDU6)
Construct: host or cells: CHO cells
assayDetails: TGR5 cAMP assay in CHO cells transfected with TGR5 (cAMP Hunter eXpress, Discover X)
Assay type: cell-based
studyConditions: 10 µM; % vs INT-767 10 µM as 100%
# TGR5 Efficacy (%) (10 µM) per entry
Please append the unit to your numeric answer.

Sample answers from the record:
# molecule, parameterMeasured, result
measured = [
    ("Cc1cnccc1C(=O)N(CC12CCC(c3ccc4c(c3)OCO4)(CC1)CC2)c1cc(Cl)cc(Cl)c1 [Compound 20n]", "TGR5 Efficacy (%) (10 µM)", "67.6%"),
    ("Cc1cc(C)cc(N(Cc2ccc(-c3ccc(N(C)C)cc3)cc2)C(=O)c2ccncc2C)c1 [Compound 13l]", "TGR5 Efficacy (%) (10 µM)", "48.5%"),
]

// query TGR5 Efficacy (%) (10 µM) value for entry Cc1cnccc1C(=O)N(Cc1ccc(-c2ccc(N(C)C)cc2)cc1)c1cccc(-c2cnn(C(C)C)c2)c1F [Compound 13t]
8.3%

// query TGR5 Efficacy (%) (10 µM) value for entry Cc1cnccc1C(=O)N(Cc1ccc(-c2ccc(N(C)C)cc2)cc1)c1ccc(F)cc1C [Compound 13e]
87.5%

// query TGR5 Efficacy (%) (10 µM) value for entry Cc1cnccc1C(=O)N(Cc1ccc(-c2ccccc2)cc1)c1cc(Cl)cc(Cl)c1 [Compound 13ah]
118.6%

// query TGR5 Efficacy (%) (10 µM) value for entry COc1ccc([C@@H]2CC[C@@H](CN(C(=O)c3ccncc3C)c3cc(Cl)cc(Cl)c3)C(C)C2)cc1C (stereo partly drawn) [Compound 20e]
33.9%

// query TGR5 Efficacy (%) (10 µM) value for entry CN(C)c1ccc(-c2ccc(CN(C(=O)c3ccncc3Br)c3cc(Cl)cc(Cl)c3)cc2)cc1 [Compound 13y]
-2.0%

// query TGR5 Efficacy (%) (10 µM) value for entry Cc1cnccc1C(=O)N(CC12CCC(c3ccc4c(c3)CCO4)(CC1)CC2)c1cc(Cl)cc(Cl)c1 [Compound 20m]
72.4%

// query TGR5 Efficacy (%) (10 µM) value for entry Cc1cnccc1C(=O)N(Cc1ccc(-c2ccc(N(C)C)cc2)cc1)c1cc(Cl)cc(Br)c1 [Compound 13k]
47.4%

// query TGR5 Efficacy (%) (10 µM) value for entry COC(=O)/C=C/c1cccc(N(Cc2ccc(-c3ccc(N(C)C)cc3)cc2)C(=O)c2ccncc2C)c1 [Compound 13a]
-3.1%

// query TGR5 Efficacy (%) (10 µM) value for entry Cc1cnccc1C(=O)N(Cc1ccc(-c2ccc(N(C)C)cc2)cc1)c1cc(Cl)cc(Cl)c1 [Compound 13j]
59.7%

// query TGR5 Efficacy (%) (10 µM) value for entry COC(=O)/C=C/c1cccc(N(Cc2ccc(-c3ccc(N(C)C)cc3)cc2)C(=O)c2ccncc2)c1 [Compound 13b]
-2.8%

* * *

experimentalSystem: PXR (Homo sapiens)
Construct: Eurofine Cerep / Eurofine Panlabs Discovery Services
Sequence (O75469 whole entry): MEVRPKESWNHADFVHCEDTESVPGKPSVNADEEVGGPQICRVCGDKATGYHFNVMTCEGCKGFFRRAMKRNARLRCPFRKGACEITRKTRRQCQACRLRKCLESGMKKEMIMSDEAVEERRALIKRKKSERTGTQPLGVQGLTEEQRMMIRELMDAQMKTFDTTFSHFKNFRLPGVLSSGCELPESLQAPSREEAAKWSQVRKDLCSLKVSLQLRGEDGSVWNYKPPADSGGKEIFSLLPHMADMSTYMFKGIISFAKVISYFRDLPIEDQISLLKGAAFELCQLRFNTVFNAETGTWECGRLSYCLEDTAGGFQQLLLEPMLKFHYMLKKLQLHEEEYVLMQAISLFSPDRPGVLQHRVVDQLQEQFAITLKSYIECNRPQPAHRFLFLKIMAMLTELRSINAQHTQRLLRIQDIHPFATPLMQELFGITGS
assayDetails: Selectivity, NR functional assay
Format: cell-based
studyConditions: 30 µM; read-out: PXR agonist effect, % of control response to reference agonist
parameterMeasured: activity at 30 µM (%)
API: value field is a number in %; no unit string.

// query activity at 30 µM value for entry COc1cc(Cl)cc(N(CC23CCC(c4ccc(OC)c(C#N)c4)(CC2)CC3)C(=O)c2ccncc2C)c1 [Compound 20p]
4.5

* * *

experimentalSystem: TGR5 (Homo sapiens)
Construct: host or cells: CHO cells
assayDetails: TGR5 cAMP assay in CHO cells transfected with TGR5 (cAMP Hunter eXpress, Discover X)
Assay type: cell-based
studyConditions: 10 µM; % vs INT-767 10 µM as 100%
# TGR5 Efficacy (%) (10 µM) per entry
API: value field is a number in %; no unit string.

Sample answers from the record:
# molecule, TGR5 Efficacy (%) (10 µM)
rows = [
    ("CCc1cnccc1C(=O)N(Cc1ccc(-c2ccc(N(C)C)cc2)cc1)c1cc(Cl)cc(Cl)c1 [Compound 13v]", 65.3),
    ("COc1cc(Cl)cc(N(CC23CCC(c4ccc5c(c4)OCO5)(CC2)CC3)C(=O)c2ccncc2C)c1 [Compound 20o]", 78.9),
    ("Cc1cnccc1C(=O)N(Cc1ccc(-c2ccc(N(C)C)cc2)cc1)c1cccc(-c2cnn(C(C)C)c2)c1C [Compound 13s]", 24.1),
]

// query TGR5 Efficacy (%) (10 µM) value for entry COc1cc(Cl)cc(N(CC23CCC(c4ccc(OC)c(C#N)c4)(CC2)CC3)C(=O)c2ccncc2C)c1 [Compound 20p]
62.4

// query TGR5 Efficacy (%) (10 µM) value for entry COC(=O)/C=C/c1cccc(N(Cc2ccc(-c3ccc(N(C)C)cc3)cc2)C(=O)c2cccnc2)c1 [Compound 13c]
1.7

// query TGR5 Efficacy (%) (10 µM) value for entry COc1cnccc1C(=O)N(Cc1ccc(-c2ccc(N(C)C)cc2)cc1)c1cc(Cl)cc(Cl)c1 [Compound 13aa]
21.5

// query TGR5 Efficacy (%) (10 µM) value for entry Cc1cnccc1C(=O)N(Cc1ccc(-c2ccc(N(C)C)cc2)cc1)c1cc(Cl)cc(N2CCC2)c1 [Compound 13n]
10.2

* * *

experimentalSystem: LXR beta (Homo sapiens)
Construct: Eurofine Cerep / Eurofine Panlabs Discovery Services
Sequence (P55055 whole entry): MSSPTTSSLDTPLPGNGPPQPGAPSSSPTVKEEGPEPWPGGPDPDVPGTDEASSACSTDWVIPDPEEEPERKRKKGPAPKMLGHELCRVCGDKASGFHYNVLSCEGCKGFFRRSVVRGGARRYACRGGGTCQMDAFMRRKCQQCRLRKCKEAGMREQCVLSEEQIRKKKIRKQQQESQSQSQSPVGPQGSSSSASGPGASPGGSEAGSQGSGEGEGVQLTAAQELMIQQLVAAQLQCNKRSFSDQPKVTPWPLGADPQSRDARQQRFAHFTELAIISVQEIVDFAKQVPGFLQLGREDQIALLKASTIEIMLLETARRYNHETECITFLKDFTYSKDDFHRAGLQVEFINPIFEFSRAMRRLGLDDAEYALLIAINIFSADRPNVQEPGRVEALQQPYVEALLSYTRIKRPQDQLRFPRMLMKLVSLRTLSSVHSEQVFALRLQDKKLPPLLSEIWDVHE
assayDetails: Selectivity, NR functional assay
studyConditions: NR functional assay
pEC50: −log10 of the molar value.
parameterMeasured: pEC50

// query pEC50 value for entry COc1cc(Cl)cc(N(CC23CCC(c4ccc(OC)c(C#N)c4)(CC2)CC3)C(=O)c2ccncc2C)c1 [Compound 20p]
< 4.52

* * *

experimentalSystem: FXR (Homo sapiens)
Construct: host or cells: CHO cells
Sequence (Q96RI1 whole entry): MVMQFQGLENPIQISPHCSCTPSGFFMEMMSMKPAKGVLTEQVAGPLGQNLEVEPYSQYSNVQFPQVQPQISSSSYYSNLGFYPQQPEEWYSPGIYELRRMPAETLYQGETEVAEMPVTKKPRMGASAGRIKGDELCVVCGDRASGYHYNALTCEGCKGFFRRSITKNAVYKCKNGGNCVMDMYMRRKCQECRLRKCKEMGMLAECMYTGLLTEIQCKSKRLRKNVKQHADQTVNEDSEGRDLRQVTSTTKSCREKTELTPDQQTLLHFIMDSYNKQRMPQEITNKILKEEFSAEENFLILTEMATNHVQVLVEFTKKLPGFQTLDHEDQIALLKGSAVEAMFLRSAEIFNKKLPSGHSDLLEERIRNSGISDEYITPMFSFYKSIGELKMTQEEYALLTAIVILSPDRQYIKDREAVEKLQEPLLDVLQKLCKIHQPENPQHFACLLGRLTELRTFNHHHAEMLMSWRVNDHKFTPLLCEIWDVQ
assayDetails: CHO cell-based FXR luciferase reporter assay (Indigo Biosciences)
studyConditions: 1 µM; % vs OCA 1 µM as 100%
Is FXR Efficacy (%) (1 µM) at least 20%? Then yes. If not, no.

Solved cases below.
# molecule, experimentalSystem, categoryLabel
rows = [
    ("Cc1cnccc1C(=O)N(Cc1ccc(-c2ccc(N(C)C)cc2)cc1)c1ccc(F)cc1C [Compound 13e]", "FXR (Homo sapiens)", "no"),
    ("COC(=O)/C=C/c1cccc(N(Cc2ccc(-c3ccc(N(C)C)cc3)cc2)C(=O)c2ccncc2C)c1C [Compound 13i]", "FXR (Homo sapiens)", "yes"),
]

State whether the measured FXR Efficacy (%) (1 µM) reaches 20%, counting equality as reaching it, for CN(C)c1ccc(-c2ccc(CN(C(=O)c3ccnnc3)c3cc(Cl)cc(Cl)c3)cc2)cc1 [Compound 13ab]
no

State whether the measured FXR Efficacy (%) (1 µM) reaches 20%, counting equality as reaching it, for CN(C)c1ccc(-c2ccc(CN(C(=O)c3ccncc3C(F)(F)F)c3cc(Cl)cc(Cl)c3)cc2)cc1 [Compound 13z]
no

State whether the measured FXR Efficacy (%) (1 µM) reaches 20%, counting equality as reaching it, for COc1ccc(C2C3CCC2CC(CN(C(=O)c2ccncc2C)c2cc(Cl)cc(Cl)c2)C3)cc1C (stereo not drawn) [Compound 20g]
yes

State whether the measured FXR Efficacy (%) (1 µM) reaches 20%, counting equality as reaching it, for Cc1cc(F)ccc1N(Cc1ccc(-c2ccc(N(C)C)cc2)cc1)C(=O)c1ccncc1 [Compound 13f]
no
